- tgt: glucocorticoid receptor (GR)
- experiment-summary: PathHunter GR translocation EFC assay, antagonist mode (pre-incubation before agonist)
- Type: cell-based, human
- stated-conditions: pre-incubated 1 hour, then 1 μM hydrocortisone as agonist for 3 hours
pIC50: −log10 of the molar value.
measured-parameter: pIC50

> print(dat)
                                   molecule  measured.parameter  reported.measurement
1  COC1=C2C[C@@H](C)C[C@H](OC)[C@H](O)[C@@H](C)/C=C(\C)[C@H](OC(N)=O)[C@@H](OC)/C=C\C=C(/C)C(=O)NC(=CC1=O)C2=O               pIC50                  7.62
